test system: MS2 coat protein; assay: apparent KD of MS2 coat protein; designed switch direction (-1 OFF switch, 1 ON switch): 1; higher = weaker reporter binding; conditions: input ligand: FMN 200 uM
metric: apparent KD of MS2 coat protein (nM)
Please respond with the number in nM and leave the unit unwritten.

Incoming: Entry CUGAAAUGUCAAGGAUAUCACGUCGAUUAGACGUGAGAAGGUGAUCUACACAUGAGGAUCACCCAUGUGUUACAUGGGAGUCAG [Brourd's SSNG1/1-A2 mod 17] (Eterna round: R96, puzzle: Same State NG 1) needs its apparent KD of MS2 coat protein filled in; supply it.
Outgoing: 325

Incoming: Entry GUGGCCUAGGCACAGGAUAUGUUGCUCGUAACAUGAGGAUCACCCAUGUGCCUAUGAGAUUUAAUGCAGAAGGGUGCACGCCACG [Edbeso] (Eterna round: R96, puzzle: Same State 2) needs its apparent KD of MS2 coat protein filled in; supply it.
Outgoing: 14.3

Incoming: Entry GUGCUCGUGUGAGGAUAUGCUUCCGGUUCGGCUGCAGAAGGUACUAUUAUACAUGAGGAUCACCCAUGUCGCUUUUCUCCGGUG [salish99_SSNG1_r04_916] (Eterna round: R96, puzzle: Same State NG 1) needs its apparent KD of MS2 coat protein filled in; supply it.
Outgoing: 28.3

Incoming: Entry GGCGAACAGGCCGACAUGAGGAUCACCCAUGUGGCCUCAUGUCAGGAUAUCGGGAAGGAGGAAACCGAGAAGGGACGGUGAGCC [AK SSNG3-V2-44] (Eterna round: R96, puzzle: Same State NG 3) needs its apparent KD of MS2 coat protein filled in; supply it.
Outgoing: 88.9

Incoming: Entry UUCACCUUUUUUUACAUGAGGAUCACCCAUGUUUACCCUACGUAGGAUAUCGAUGAAUGAUUGUACGAGAAGGACGUAGUAAGU [JR_SSND3_Sub057] (Eterna round: R96, puzzle: Same State NG 3) needs its apparent KD of MS2 coat protein filled in; supply it.
Outgoing: 19.1

Incoming: Entry GGAGCCAAGGCAGGAUAUUCAUAUUAAUAAACAUGAGGAUCACCCAUGUAGGCCAGAAGGCCUUGGGAGAAGGGCCAUGGCUCG [Xeonanis - 13 mod5] (Eterna round: R96, puzzle: Same State NG 2) needs its apparent KD of MS2 coat protein filled in; supply it.
Outgoing: 21.3

Incoming: Entry AGUCCAGCCUGAGCUGGACAAAAGCAUGUACAUGAGGAUCACCCAUGUCAUGUACAAGCUUUUUGCUCGUCUUAAAA [JL zipper 46] (Eterna round: R96, puzzle: Sensor for hsa-mir-208a) needs its apparent KD of MS2 coat protein filled in; supply it.
Outgoing: 685

Incoming: Entry UGCUAGGAUAUCUUGAGGAUCACCCAGGAGAAGGAGCCAAGCUAGGAUAUCCUGAGGAUCACCCAGGAGAAGGAGCACAUACUC [pwkr ssNG3 DX 2xF5 +2xFMN.13] (Eterna round: R96, puzzle: Same State NG 3) needs its apparent KD of MS2 coat protein filled in; supply it.
Outgoing: 107

Incoming: Entry CUCAAACAUGAGGAUCACCCAUGUGUUGUCGUGGGAGGAUAUCCCAGUUCGGUGGCGUCGGGAGAAGGCCUAUGUC (Eterna round: R96, puzzle: Same State 1) needs its apparent KD of MS2 coat protein filled in; supply it.
Outgoing: 67.8
